Hey, just so you know, these numbers are from patent US20090209571A1.

Target: human mPGES-1 (Homo sapiens, UniProt O14684)
Construct: expressed in transfected cells; host or cells: CHO-K1 cells, transiently transfected; microsomal fraction used
Sequence (O14684 1-152): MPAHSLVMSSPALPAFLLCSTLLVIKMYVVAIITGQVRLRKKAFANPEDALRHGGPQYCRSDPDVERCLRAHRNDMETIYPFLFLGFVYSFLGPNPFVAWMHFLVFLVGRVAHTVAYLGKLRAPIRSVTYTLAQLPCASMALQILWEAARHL
Test: Microsomal Prostaglandin E Synthase Assay
Type: biochemical
Conditions: microsomal fractions from CHO-K1 cells transiently transfected with human mPGES-1 cDNA; 1 μM PGH2; PGE2 by EIA; average of at least n=3; read-out: h-CHO (nM), potency expressed as IC50
Endpoint label: IC50 (nM)

Worked cases, IC50 given:
-- ask What reported IC50 corresponds to `Fc1cccc(Cl)c1-c1nc2c3ccccc3c3sc(Cl)cc3c2[nH]1` on human mPGES-1 (Homo sapiens, UniProt O14684)?
-- reply 10.5

-- ask What reported IC50 corresponds to `CC(C)(O)C#Cc1ccc2c(c1)c1c(Cl)c(Cl)sc1c1[nH]c(-c3c(C#N)cccc3C#N)nc21` on human mPGES-1 (Homo sapiens, UniProt O14684)?
-- reply 1.5

I. N#Cc1cccc(C#N)c1-c1nc2c3ccc(Cl)cc3c3ccoc3c2[nH]1
II. Fc1cccc(Cl)c1-c1nc2c3ccc(Cl)cc3c3cc(Br)sc3c2[nH]1
-- ask Just curious, which one has the larger IC50 reading, I or II ? Response format: the label of the selected entry.
-- reply I
